Here the recorded pKd is given for each entry.
target: FKBP12 (Homo sapiens (Human)); assay: SPR binding of compound (analyte) to immobilized FKBP12 (Example 7); conditions: 25° C., 12×HIS tagged FKBP12 immobilized on NTA chip; read-out: SPR affinity to FKBP12: KD
Sequence (P62942 whole entry): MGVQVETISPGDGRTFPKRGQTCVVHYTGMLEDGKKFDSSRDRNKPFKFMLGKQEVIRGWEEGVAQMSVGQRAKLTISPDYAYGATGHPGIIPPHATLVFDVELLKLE
pKd: −log10 of the molar value.
MEASUREMENT NAME: pKd

CC[C@H](Cc1ccccc1)[C@@H]1/C=C/C/C=C/C[C@@H](C)[C@H](O)[C@@H](C)[C@@H]2CC[C@@H](C)C(=O)C(O)(O2)C(=O)N2CCCC[C@H]2C(=O)O1
7.90
CC[C@H](Cc1ccccc1)[C@@H]1/C=C/C/C=C/C[C@@H](C)[C@H](O)[C@@H](C)[C@@H]2CC[C@@H](C)C(=O)C(O)(O2)C(=O)N2CCC[C@H]2C(=O)O1
7.64
CC[C@H](Cc1ccccc1)[C@@H]1/C=C/C=C/CC(=O)[C@@H](C)[C@H](O)[C@@H](C)[C@@H]2CC[C@@H](C)C(=O)C(O)(O2)C(=O)N2CCCC[C@H]2C(=O)O1
8.15
CCC(Cc1ccccc1)C1/C=C/C/C=C/CC(C)C(O)C(C)C2CCC(C)C(O)(CC(=O)N3CCCCC3C(=O)O1)O2 (centres unmarked)
7.15
CC[C@H](Cc1ccccc1)[C@@H]1/C=C/C/C=C/C(=O)[C@@H](C)[C@H](O)[C@@H](C)[C@@H]2CC[C@@H](C)[C@@](O)(O2)C(=O)C(=O)N2CCCC[C@H]2C(=O)O1
8.89
